Target: Mu-type opioid receptor (Homo sapiens, UniProt P35372)
Sequence (P35372 whole entry): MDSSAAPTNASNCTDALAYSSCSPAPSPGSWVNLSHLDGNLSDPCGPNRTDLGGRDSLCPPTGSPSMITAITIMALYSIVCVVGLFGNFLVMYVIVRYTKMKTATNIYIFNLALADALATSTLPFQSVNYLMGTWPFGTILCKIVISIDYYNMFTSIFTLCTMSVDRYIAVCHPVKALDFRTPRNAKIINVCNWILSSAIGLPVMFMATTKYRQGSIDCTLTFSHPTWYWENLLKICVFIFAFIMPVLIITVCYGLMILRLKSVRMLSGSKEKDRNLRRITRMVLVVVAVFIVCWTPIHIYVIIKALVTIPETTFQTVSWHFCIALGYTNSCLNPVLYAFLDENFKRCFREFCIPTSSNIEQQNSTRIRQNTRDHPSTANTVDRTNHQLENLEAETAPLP
Assay: Displacement of [3H]Diprenorphine from human MOR expressed in HEK293 cell membranes by liquid scintillation counting
Metric Name: Ki

Task: Which Ki value is on record for COc1ccsc1CNCC[C@@]1(c2ccccn2)CCC2(CCCC2)OC1 ?
Output: 6 nM

====

Can you tell me Ki for the items I'm about to list?
Biological target: Delta-type opioid receptor (Homo sapiens, UniProt P41143)
Sequence (P41143 whole entry): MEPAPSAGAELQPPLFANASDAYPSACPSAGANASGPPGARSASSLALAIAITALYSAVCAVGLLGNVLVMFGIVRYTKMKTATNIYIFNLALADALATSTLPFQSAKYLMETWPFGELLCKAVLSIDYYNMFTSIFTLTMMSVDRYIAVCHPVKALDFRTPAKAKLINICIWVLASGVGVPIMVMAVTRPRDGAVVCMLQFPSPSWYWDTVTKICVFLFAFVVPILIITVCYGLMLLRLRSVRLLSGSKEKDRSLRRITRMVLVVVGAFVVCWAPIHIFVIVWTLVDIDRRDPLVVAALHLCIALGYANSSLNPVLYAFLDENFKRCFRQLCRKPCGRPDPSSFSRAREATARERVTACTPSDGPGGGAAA
Experiment: Displacement of [3H]DPDPE from human DOR expressed in CHO cells
Numbers only, in nM.

The following compounds have reported results that may help.
>>> readout_value("C[C@H]1[C@H]2Cc3ccc(O)cc3[C@]1(C)CCN2CCC(=O)NC(c1ccccc1)c1ccccc1")
2900
>>> readout_value("C[C@H]1[C@H]2Cc3ccc(O)cc3[C@]1(C)CCN2CCC(=O)N1CCc2ccccc2[C@H]1c1ccccc1")
7900
>>> readout_value("C[C@H]1[C@H]2Cc3ccc(O)cc3[C@]1(C)CCN2CCC(=O)NCC(c1ccccc1)c1ccccc1")
440
>>> readout_value("C[C@H]1[C@H]2Cc3ccc(O)cc3[C@]1(C)CCN2CCC(=O)N(C)C(c1ccccc1)c1ccccc1")
1400

Task: Need Ki of C[C@H]1[C@H]2Cc3ccc(O)cc3[C@]1(C)CCN2CCC(=O)N1CCc2ccccc2[C@@H]1c1ccccc1 , thanks.
Output: 2900

====

Biological target: Kappa-type opioid receptor (Homo sapiens, UniProt P41145)
Sequence (P41145 whole entry): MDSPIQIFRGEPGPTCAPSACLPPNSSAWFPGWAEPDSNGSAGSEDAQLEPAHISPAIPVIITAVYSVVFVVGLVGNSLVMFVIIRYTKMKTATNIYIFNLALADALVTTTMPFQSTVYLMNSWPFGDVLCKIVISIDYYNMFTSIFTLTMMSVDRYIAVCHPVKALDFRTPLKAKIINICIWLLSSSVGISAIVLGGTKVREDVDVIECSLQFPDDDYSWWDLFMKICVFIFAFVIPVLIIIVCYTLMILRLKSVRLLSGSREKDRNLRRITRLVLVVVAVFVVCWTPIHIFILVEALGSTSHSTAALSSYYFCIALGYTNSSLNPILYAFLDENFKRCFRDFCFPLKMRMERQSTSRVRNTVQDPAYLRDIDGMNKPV
pKi: −log10 of the molar value.
Metric Name: pKi

Task: I am curious: what pKi value has been reported for COc1ccsc1CNCC[C@@]1(c2ccccn2)CCC2(CCCC2)OC1 ?
Output: > 5.00

====

Please respond with reported pKi for every item in the list.
Target: Kappa-type opioid receptor (Rattus norvegicus)
Sequence (P34975 whole entry): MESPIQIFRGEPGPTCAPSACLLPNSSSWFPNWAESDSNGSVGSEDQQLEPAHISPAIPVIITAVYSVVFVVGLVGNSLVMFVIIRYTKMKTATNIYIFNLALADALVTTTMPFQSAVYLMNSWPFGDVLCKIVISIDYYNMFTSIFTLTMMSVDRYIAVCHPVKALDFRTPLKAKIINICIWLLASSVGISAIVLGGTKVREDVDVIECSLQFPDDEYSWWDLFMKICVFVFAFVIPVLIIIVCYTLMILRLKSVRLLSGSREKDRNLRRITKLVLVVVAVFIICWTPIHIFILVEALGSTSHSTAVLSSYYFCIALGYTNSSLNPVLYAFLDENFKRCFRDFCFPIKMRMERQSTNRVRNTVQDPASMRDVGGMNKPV
Test: Displacement of [3H]U69593 from rat KOR expressed in CHO cells
Format: cell-based
One number for each entry, as −log10 of the molar value.

Example entries begin here.
>>> readout_value("C[C@H]1[C@H]2Cc3ccc(O)cc3[C@]1(C)CCN2CCC(=O)Nc1ccccc1")
6.96
>>> readout_value("C[C@H]1[C@H]2Cc3ccc(O)cc3[C@]1(C)CCN2CCC(=O)NCC(c1ccccc1)c1ccccc1")
6.72
>>> readout_value("C[C@H]1[C@H]2Cc3ccc(O)cc3[C@]1(C)CCN2CCC(=O)N1CCc2ccccc2[C@H]1c1ccccc1")
5.72
>>> readout_value("C[C@H]1[C@H]2Cc3ccc(O)cc3[C@]1(C)CCN2CCC(=O)N1CCc2ccccc2[C@@H]1c1ccccc1")
6.05
>>> readout_value("C[C@H]1[C@H]2Cc3ccc(O)cc3[C@]1(C)CCN2CCC(=O)N(C)C(c1ccccc1)c1ccccc1")
6.43

# next compound below
Task: If you can, please state the reported pKi value of C[C@H]1[C@H]2Cc3ccc(O)cc3[C@]1(C)CCN2CCC(=O)NC(c1ccccc1)c1ccccc1 .
Output: 6.17

====

I'd be grateful if you could share measured Ratio Ki for these entries.
Assay: Selectivity ratio of Ki for displacement of [3H]U69593 from rat KOR expressed in CHO cells to Ki for displacement of [3H]DAMGO from MOR in HEK293 cells
Format: cell-based
One number for each entry.

See these solved cases before continuing.
>>> readout_value("C[C@H]1[C@H]2Cc3ccc(O)cc3[C@]1(C)CCN2CCC(=O)N(C)C(c1ccccc1)c1ccccc1")
2.31
>>> readout_value("C[C@H]1[C@H]2Cc3ccc(O)cc3[C@]1(C)CCN2CCC(=O)N1CCc2ccccc2[C@H]1c1ccccc1")
4.04
>>> readout_value("C[C@H]1[C@H]2Cc3ccc(O)cc3[C@]1(C)CCN2CCC(=O)NC(c1ccccc1)c1ccccc1")
8.09

Provide each entry's Ratio Ki from the list below.
1. C[C@H]1[C@H]2Cc3ccc(O)cc3[C@]1(C)CCN2CCC(=O)Nc1ccccc1
2. C[C@H]1[C@H]2Cc3ccc(O)cc3[C@]1(C)CCN2CCC(=O)N1CCc2ccccc2[C@@H]1c1ccccc1
3. C[C@H]1[C@H]2Cc3ccc(O)cc3[C@]1(C)CCN2CCC(=O)NCC(c1ccccc1)c1ccccc1

Output:
1: 132; 2: 12.5; 3: 380

====

Biological target: Mu-type opioid receptor (Homo sapiens)
Assay: Displacement of [3H]DAMGO from MOR in HEK293 cells
Assay type: cell-based
Can you tell me log10(Ki) for the items I'm about to list?
Scale: log10; quantity: Ki; unit before log: nM

Example cases with answers are listed next.
>>> readout_value("C[C@H]1[C@H]2Cc3ccc(O)cc3[C@]1(C)CCN2CCC(=O)NC(c1ccccc1)c1ccccc1")
1.92
>>> readout_value("C[C@H]1[C@H]2Cc3ccc(O)cc3[C@]1(C)CCN2CCC(=O)NCC(c1ccccc1)c1ccccc1")
-0.30
>>> readout_value("C[C@H]1[C@H]2Cc3ccc(O)cc3[C@]1(C)CCN2CCC(=O)N(C)C(c1ccccc1)c1ccccc1")
2.20
>>> readout_value("C[C@H]1[C@H]2Cc3ccc(O)cc3[C@]1(C)CCN2CCC(=O)N1CCc2ccccc2C1c1ccccc1 (mixture of isomers)")
1.98
>>> readout_value("C[C@H]1[C@H]2Cc3ccc(O)cc3[C@]1(C)CCN2CCC(=O)N1CCc2ccccc2[C@@H]1c1ccccc1")
2.58

We next turn to a different compound, shown below.
Task: Given the entry C[C@H]1[C@H]2Cc3ccc(O)cc3[C@]1(C)CCN2CCC(=O)N1CCc2ccccc2[C@H]1c1ccccc1 , what log10(Ki) was observed with Mu-type opioid receptor (Homo sapiens)?
Output: 2.67
